# Tested on: A549 NSCLC
# PROCEDURE_TEXT: NCI tumour cell line growth inhibition, 48 h
MEASURED_PROPERTY: GI50

Past entries and their recorded results:
COc1ccc(C(=O)/C=C/c2ccc(Cl)cc2)cc1S(=O)(=O)Nc1c(N)nc(SC)[nH]c1=O = 2.75 µM
CN(C)c1ccc2nc3ccc(=[N+](C)C)cc-3oc2c1 = 2.91 µM
Fc1ccc(-c2nc3n(c2-c2ccncc2)CCS3)cc1 = > 25 µM
O=c1cc(CNc2cc(F)cc(F)c2)c2ccc(I)cc2[nH]1 = 0.707 µM
COc1cc2nc(Cl)nc(Nc3cccc(C(=O)/C=C/c4ccccc4)c3)c2cc1OC = > 38.7 µM

Item: `CCN=C1C=CC(=C(c2ccc(N(C)C)cc2)c2ccc(N(C)C)cc2)c2ccccc21` Test system: A549 NSCLC Read-out: GI50 Value: ?
0.0312 µM

Given the entry `CC(C)(O)c1ccc(N2CCN(c3nnc(Cc4ccccc4)c4ccccc34)CC2)nc1` , what GI50 was observed with A549 NSCLC?
6.98 µM

State its GI50 on A549 NSCLC: C=C1C(=O)O[C@@H]2C1CC(=O)C(C)CC/C=C(\C)CCC[C@H](C)[C@H]2OC(C)=O (stereo not given in full)
19.6 µM

Request - read-out GI50 | tested on A549 NSCLC | compound `CCOC(=O)c1c2c(n(CC(C)C)c1C)-c1nc[nH]c1C(=O)C2=O`
14.9 µM

API: value(readout=GI50, system=A549 NSCLC) for record `COc1cccc(OC(=O)c2ccccc2Nc2ccnc(C(F)(F)F)c2)c1`
3.18 µM

====

# Test system: XF 498 CNS
# PROCEDURE_TEXT: NCI tumour cell line growth inhibition, 48 h
TGI values for the compounds below.
Number only, in µM; omit the unit.

These recorded examples may help you get a feel for the data.
C=C1C(=O)OC2CC3(C)C=CC(=O)C(=C)C3CC12 (stereo not given) = 3.35
Cc1c2ccncc2cc2c1sc1ccncc12 = 29.8

In the following, a different compound is considered.
Request the reported TGI associated with `C=C(C)[C@@H]1CC=C(CO)CC1`
680

====

# Tested on: MALME-3M melanoma
# PROCEDURE_TEXT: NCI tumour cell line growth inhibition, 48 h
MEASURED_PROPERTY: GI50

COc1ccc(C(=O)/C=C/c2ccc(Cl)cc2)cc1S(=O)(=O)Nc1c(N)nc(SC)[nH]c1=O = 3020 nM
N=C(N)c1nn(C2OC(CO)C(O)C2O)c2nc[nH]c(=O)c12 (stereo not given) = 206 nM
O=C(CCl)c1ccc([N+](=O)[O-])o1 = 1980 nM
c1ccc2[nH]c(-c3ccc(N4CCN(c5ccc(-c6nc7ccccc7[nH]6)cc5)CC4)cc3)nc2c1 = > 100000 nM

// moving on: another record for GI50
Missing value: GI50, MALME-3M melanoma, entry `CC(=O)[O][Pb]([O]C(C)=O)([c]1ccccc1)[c]1ccccc1` . Fill in?
> 100000 nM

====

GI50 reference
# Test system: MDA-MB-231 breast
# PROCEDURE_TEXT: NCI tumour cell line growth inhibition, 48 h

Below: 4 compounds and their reported GI50.
CCn1c(-c2nonc2N)nc2cncc(C(=O)N3CCNCC3)c21 = > 25 µM
COc1ccc(C(=O)/C=C/c2ccc(Cl)cc2)cc1S(=O)(=O)Nc1c(N)nc(SC)[nH]c1=O = 3.42 µM
CC[C@H](Nc1nc(N)nc(C)c1C#N)c1nc2cccc(CN(C)c3ncc(C(=O)NO)cn3)c2c(=O)n1-c1ccccc1 = 0.779 µM
COc1ccc(Cn2nc(-c3cc(OC)c(OC)c(OC)c3)c3c2CCc2cnoc2-3)cc1OC = 8 µM

Next item in the queue.
Which GI50 value is on record for `O=c1cc(CNc2cc(F)cc(F)c2)c2ccc(I)cc2[nH]1` ?
77.8 µM

====

# Tested on: IGROV1 ovarian
# PROCEDURE_TEXT: NCI tumour cell line growth inhibition, 48 h
// TGI lookup, one value per entry

NC(=O)[C@H]1CCN(c2ncnc(N)c2F)C[C@@H]1N1CCC[C@@H](Nc2cc(Cl)cc(C(F)(F)F)c2)C1=O = > 100 µM
Cn1c(=O)c2[nH]c(/N=N/N3CCN(CCO)CC3)nc2n(C)c1=O = > 100 µM

TGI lookup needed for C=C1C(=O)C([Si](C)(C)C)=C2C=C(C)C3(CC3)C12C (centres undefined) , thanks.
> 100 µM

Which measured TGI value corresponds to `CN(C)c1ccc2nc3ccc(=[N+](C)C)cc-3oc2c1` ?
5.01 µM

Give its TGI value. Item: `O=c1c2cc(S(=O)(=O)Nc3ccccc3Cl)ccc2ncn1NS(=O)(=O)c1ccc(Br)cc1`
> 37.5 µM

Data request, read-out TGI, for `O=C(CCN1CCCC1)Nc1ccc2c(NCc3ccc(F)cc3)c3ccccc3nc2c1`
1.5 µM

Reported TGI, compound `CC[C@H](Nc1nc(N)nc(C)c1C#N)c1nc2cccc(CN(C)c3ncc(C(=O)NO)cn3)c2c(=O)n1-c1ccccc1` : ____
2.28 µM

Reported TGI, compound C=C1C(=O)O[C@H]2C[C@@H](C)[C@@H]3CC(=O)OC[C@@]3(C)CC12 (some centres undefined) : ____
> 100 µM

Would you kindly share the measured TGI for `COC(=O)c1[nH]c(=S)[nH]c(=O)c1-c1ccc(Cl)cc1` ?
> 50 µM

====

# Tested on: RXF 393 renal
# PROCEDURE_TEXT: NCI tumour cell line growth inhibition, 48 h
Decision: TGI compared against 10 µM; not below it gives Criterion met, below it gives Criterion not met.

Worked set:
CC12CCC(=O)C(O1)C1C(=O)c3cc4ccccc4cc3C(=O)C12 (stereo not drawn) = Criterion met
CN1CCc2c1nc(-c1ccccc1)c1c2N(C)CC1 = Criterion met
O=C(NC(C(F)(F)F)(C(F)(F)F)P(=O)(c1ccccc1)c1ccccc1)C(C(F)(F)F)C(F)(F)F = Criterion met

Kindly determine if TGI recorded for CC12CCC(=O)C=C1CCC1C2CCC2(C)C(C(=O)Cn3cnc4c(=S)nc[nH]c43)CCC12 (stereo not drawn) is above or exactly 10 µM.
Criterion met

====

The following compounds are listed with their measured TGI values.
# Tested on: MDA-MB-435
# PROCEDURE_TEXT: NCI tumour cell line growth inhibition, 48 h
# number only, unit µM dropped from output

A selection of reference data follows.
O=C(CCl)c1ccc([N+](=O)[O-])o1 = 4.22
Cc1nc2sc(CCl)nn2c(=O)c1Cl = 18.3
COc1cc2c(/C=C3/C(=O)Nc4ccc(Cl)cc43)c(Cl)n(Cc3ccccc3)c2cc1C = 6.21

Using the record for `CN(C)CCNC(=O)c1cccn2c(=O)c3cc4ccccc4cc3nc12` , report its TGI.
1.19

Form field: reported TGI of CC12CCC=CC1CCC1C2CCC2(C)C(c3ccc(=O)oc3)CCC12O (stereo unspecified)
0.528

Data request, read-out TGI, for `COc1cc2c(cc1OC)-c1ccc3cc4c(cc3c1N(CCN1CCCC1)C2)OCO4`
6.13

====

# Tested on: UO-31 renal
# PROCEDURE_TEXT: NCI tumour cell line growth inhibition, 48 h
MEASURED_PROPERTY: TGI

Reference set, count: 3
Cn1c(=O)c2[nH]c(/N=N/N3CCN(CCO)CC3)nc2n(C)c1=O = > 100 µM
Cc1c(C#N)c2nnn(C)c(=O)n2c1-c1ccccc1 = > 100 µM
CCOC(=O)CSc1ccnc(=O)[nH]1 = > 100 µM

// next item, TGI requested
So what's the measured TGI for this one? `NC(=O)[C@H]1CCN(c2ncnc(N)c2F)C[C@@H]1N1CCC[C@@H](Nc2cc(Cl)cc(C(F)(F)F)c2)C1=O`
> 100 µM

====

Listing of recorded TGI by entry.
# Tested on: A549 NSCLC
# PROCEDURE_TEXT: NCI tumour cell line growth inhibition, 48 h

Please review the entries below; each comes with its answer.
O=P(O)(OCC(O)O)OCC(O)O = > 100 µM
N#CC1(C#N)C2CCCCC23OC(=N)C1(C#N)C(c1ccco1)O3 (stereo not given) = > 100 µM
O=C1C(Cl)=C(N/N=c2/[nH][nH]/c(=N/NC3=C(Cl)C(=O)c4ccccc4C3=O)c3ccccc23)C(=O)c2ccccc21 = 52.2 µM
O=C(CC1Sc2ccccc2NC1=O)Nc1cc(Cl)ccc1Cl (stereo not given) = > 100 µM

What measured TGI is associated with `N#Cc1ncc(/N=C/c2ccc(N(CCCl)CCCl)cc2)s1` on A549 NSCLC?
> 100 µM

====

TGI for assorted molecules
# Tested on: SNB-19 CNS
# PROCEDURE_TEXT: NCI tumour cell line growth inhibition, 48 h
All answers are understood in µM, so give the number only.

COc1ccc2c(c1)CCC1C2CCC2(C)C1CCC2(O)CNC(=O)CCCCC1CCSS1 (stereo unspecified) = 51.1

I would be grateful if you could share the reported TGI for `CCCCc1ccc(Nc2nc(Cl)c3c(ncn3COCCOC(C)=O)n2)cc1` .
46.1

What value of measured TGI is listed for `Cc1c2ccncc2cc2c1sc1ccncc12` ?
30.3

Entry `CC1=CC(=O)c2c(O)cccc2C1=O` : reported TGI = ?
25
